Please provide measured Enzyme Activity Endpoint Assay: scIgG for the entries that follow.
- assayed target: pooled human IgG (human IgG1, 2, 3 and 4)
Answers are plain numbers, in ng/µL.

Please state Enzyme Activity Endpoint Assay: scIgG for every protein in the list that follows.
1. PRT-375 (protein) MSQTEDSESLQRLRDIEDFQAEKKKQNVVYTKWLDGVDVKDHDFRKIVDGNEAYYATPLLNGRGFYDINKDFNRDNDKCAAAVAANMFHYWLDRNRDNVDRFLRQNPEKHGIIELPDGQLKLSDFLNTYESDDGYRDKSKLFDFISENFNGPVWTDKLLDNYINGYAYNYKYGRLIEDSTKNTSKINFFKEVFNEKILTNNHSIRNQNELSVLLSEALYTGKAIGLSYGPAGTRHSLGHIISVWGADLDADGNVVAIYVTDSDDKKLTIGDERVGLKRYKISTDDEGRLRLTAYEETHNTGGQIRGLWTLDTGKQAWADYFDKTEQTGTDQAEQ
2. PRT-398 (protein) MVTSVWTKGVTPPADFTQGEDVFHAPYVANQGWYDITKTFNGKDDLLCGAATAGNMLHWWFDQNKEYIEAYLKKHPEKQKIMFGDQELLDVRKAINTKGSQKNSELFNYFRDKAFPNLSARRLGVMPDLVLDMFINGYYLNVTKTQTTDVNRTYQEKDKRGGIFDAVFTRGDQSKLLTSRHDFKEKGLKEISDLIKQELTEGKALGLSHTYANVRINHVINLWGADFDSDGNLKAIYVTDSDSNASIGMKKYDVGVNSAGKVAISAKEIKEDNIGAQVLGLFTLSTGQDIWNQTN
3. PRT-414 (protein) MTITSVWTKGVTPPTPEDFRYNNEDVLHAPYVANQGWYDITKTFDGKDNLLCGAATAGNMLHWWFDQNKEEIERYLKKHPEKQKIIFGNQELFDVKAAIDTKDSQTNSKLFNYFRDKAFPNLSARQLGVMPDLVLDMFINGYYLNLGKTQSTDVNRPYQDKDKRGGIFDAVFTRGDQTTLLTARHDLKNKGLNEISDLIKQELTEGKALALSHTYANVRINHVINLWGADFDAEGNLIAIYVTDSDANASIGMKKYFVGVNANGKVAISAKKIEGDNIGAQVLGLFTLSTGQDIWQKLS

Marked response:
[180, 196, 129]

Exam item: GET /values?readout=Enzyme Activity Endpoint Assay: scIgG&item= PRT-434 (protein) MSQTEDSESLQRLRDIEDFQAEKKKQNVVYTKWLDGVDVKDHDFRKIVDGNIAYYATPLLNGRGFYDINKDFNRDSDKCAAAVAANMFHYWLDRNRDNVDRFLRQNPEKHGIIELPDGQLKLSDFLNTYESDDGYRDKSKLFDFISNNFNGPVWTDKLLDNYINGYAYNYKYGRTIEDPTKNTSKINFFKEVFNEKILTNNHSIRNQNEFSVLLSEALYTGKAIGLSYGPAGLRHGLGHIISVWGADLDADGNVVAIYVTDSDDKKLTIGDERVGLKRYKISTDDEGRLRLTAYEETHNTGGQIRGLWTLDTGKQAWADYFDKTEQTGTDQAEQ
Marked response: 234
